test system: pyrimidine nucleoside phosphorylase; experiment: Inhibition of pyrimidine nucleoside phosphorylase activity in beagle small intestine homogenate (decomposition of 5-fluoro-2'-deoxyuridine); type: biochemical; conditions: inhibitor 0.025 mM; 0.4% w/v beagle small intestine homogenate, pH 7.0, 37° C.
assay_metric: Inhibitory percentage (%)
Numbers only, in %.

Please give Inhibitory percentage for each item listed below.
1. Cc1cn([C@H]2C[C@H](O)[C@@H](CO)O2)c(=O)[nH]c1=O [Thymidine, reference compound]
2. O=c1[nH]c(=O)n(COCCO)cc1F
3. Cc1cn(COCCO)c(=O)[nH]c1=O
4. O=c1ccn([C@H]2C[C@H](O)[C@@H](CO)O2)c(=O)[nH]1 [Deoxyuridine, reference compound]

52.2
40.6
67.3
8.8

----------
Molecular target: pyrimidine nucleoside phosphorylase (Rattus norvegicus)
Construct: small intestine homogenates of an SD-strain male rat and a male beagle; from tissue; host or cells: small intestine homogenate of SD-strain male rat
Sequence (F7F0D5 1-312): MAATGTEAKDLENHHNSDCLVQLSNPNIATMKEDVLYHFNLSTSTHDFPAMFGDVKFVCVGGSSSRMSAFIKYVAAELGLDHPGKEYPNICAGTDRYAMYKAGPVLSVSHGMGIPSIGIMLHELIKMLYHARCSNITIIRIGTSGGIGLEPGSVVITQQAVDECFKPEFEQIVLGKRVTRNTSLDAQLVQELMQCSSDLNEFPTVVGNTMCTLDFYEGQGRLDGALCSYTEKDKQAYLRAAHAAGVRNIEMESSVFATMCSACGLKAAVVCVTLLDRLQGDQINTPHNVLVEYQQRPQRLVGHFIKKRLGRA
Experiment: Inhibition of pyrimidine nucleoside phosphorylase activity in rat small intestine homogenate (decomposition of 5-fluoro-2'-deoxyuridine)
Assay type: biochemical, SD-strain rat
Conditions: rat, small intestine homogenate, pH 7
Procedure: Inhibitory effects of 1-[(2-hydroxyethoxy)methyl]-5-methyluracil, 1-[(2-hydroxyethoxy)methyl]-5-fluoro-uracil, 1-[(2-hydroxyethoxy)methyl]-5-bromouracil on pyrimidine nucleoside phosphorylase activity in the small intestine homogenates of an SD-strain male rat and a male beagle were assayed with a lowering in decomposition rate of 5-fluoro-2'-deoxyuridine (concentration: 0.025 mM) and compared with the same effects of thymidine and deoxyuridine.
assay_metric: half-life at 25 µM

- compound: "O=c1ccn([C@H]2C[C@H](O)[C@@H](CO)O2)c(=O)[nH]1 [Deoxyuridine, reference compound]"
  half-life at 25 µM: "1.1 h"
- compound: "O=c1[nH]c(=O)n(COCCO)cc1F"
  half-life at 25 µM: "> 16.7 h"

Next compound, half-life at 25 µM to be filled in.
Note down half-life at 25 µM recorded for Cc1cn(COCCO)c(=O)[nH]c1=O
> 16.7 h
